Field: composite z-score. Provide a value for each of the molecules that follow.
test system: XIP peptide (Xip251-270) binding; experiment: small-molecule binders of XIP peptide, primary screen, biochemical, small-molecule microarray, fluorescence 635/667 nm, 0.1 µg/mL protein (AID 1182); settings: fluorescent protein binding, 635 nm, higher = more signal, called active from +8 up or from −8 down
Keep it simple and answer with nothing but the number.

*Q* # return recorded composite z-score for entry CCOC(=O)C[C@H]1[C@H](OC(=O)c2cc3ccccc3oc2=O)[C@@H](NC(=O)c2ccc(-c3ccccc3)cc2)c2cc(OCCCO)ccc2N1C(=O)c1ccccc1
*A* 0.411

*Q* Please give the documented composite z-score of COCC1=C2[C@@H](CCc3ccccc3)OB(O)C[C@@H]2[C@@H]2C(=O)C=CC(=O)[C@@H]2C1
*A* 0.796

*Q* Give composite z-score for C=C[C@@H](COC(C)=O)N(C(=O)OC(C)(C)C)S(=O)(=O)c1ccc(Br)cc1
*A* 0.805
